experimental details: qHTS assay to identify small molecule agonists of the vitamin D receptor (VDR) signaling pathway - cell viability counter screen (AID 743224); further: nearly all actives have a fitted effect of over 50% in size
assay context: VDR-bla HEK293T viability, CellTiter-Glo luminescence, 16 h; series mostly up to 62.6 µM
Records with an inconclusive call do not appear. Activity calls are given as the source filed them. The call rests on the fitted dose curve; in most records, active means well fitted cell-killing curve with a large enough effect in the repeat runs; inconclusive means weak or mixed curves, or effect the other way; inactive means no such curve, though single readings can be large or run the other way.
Write down one outcome, taken from active, inactive

For Oc1ccc([C@H]2CNCc3c2ccc(O)c3O)cc1O , what call appears in the results of this test?
inactive

For CCN(CC)C(=O)N[C@@H]1C=C2c3cccc4[nH]cc(c34)C[C@@H]2N(C)C1 , what call appears in the results of this test?
inactive

For COP(=O)(OC)Oc1ccc([N+](=O)[O-])cc1 , what call appears in the results of this test?
inactive

For CN1C2CCC(C)(C)C1CC(OC(=O)C(O)(c1cccs1)c1cccs1)C2 (centres undefined) , what call appears in the results of this test?
inactive

For Oc1ccc2[nH]cc(CCCCN3CC=C(c4ccccc4)CC3)c2c1 , what call appears in the results of this test?
inactive

For N#CC(C#N)=NNc1cccc(Cl)c1 , what call appears in the results of this test?
active

For O.O.O.O.O.O.O=S(=O)([O-])[O-].[Ni+2] , what call appears in the results of this test?
inactive

For O=C(Cl)c1ccccc1F , what call appears in the results of this test?
inactive

For CCCCn1cc[n+](C)c1 (tested in a mixture with another compound) , what call appears in the results of this test?
inactive

For CCOP(=S)(OCC)SC(CCl)N1C(=O)c2ccccc2C1=O (centres undefined) , what call appears in the results of this test?
inactive

For CN1[C@@H]2CC[C@H]1CC(O)C2 (some centres undefined) , what call appears in the results of this test?
inactive

For CSC(=O)c1c(C(F)F)nc(C(F)(F)F)c(C(=O)SC)c1CC(C)C , what call appears in the results of this test?
active

For N#Cc1sc2c(=O)c3ccccc3c(=O)c=2sc1C#N , what call appears in the results of this test?
active

For Clc1ccc(C(Cl)(Cl)Cl)cc1Cl , what call appears in the results of this test?
inactive

For CC(C)=CC1C(C(=O)OC(C#N)c2cccc(Oc3ccccc3)c2)C1(C)C (centres undefined) , what call appears in the results of this test?
inactive

For CC(C)Br , what call appears in the results of this test?
inactive

For Oc1cc(Cl)cc(Cl)c1 , what call appears in the results of this test?
inactive

For Cc1cnc2c(C(=O)O)c(Cl)ccc2c1 , what call appears in the results of this test?
inactive

For CCOP(=O)(Sc1ccccc1)Sc1ccccc1 , what call appears in the results of this test?
inactive

For CC(Cl)CCl (centres undefined) , what call appears in the results of this test?
inactive

For O=C(N[C@@H]1N=C(c2ccccc2F)c2cccc3c2N(CC3)C1=O)c1cc2ccccc2[nH]1 , what call appears in the results of this test?
inactive

For NC(=O)C(Cl)Cl , what call appears in the results of this test?
inactive

For CNN , what call appears in the results of this test?
inactive

For C#CCO , what call appears in the results of this test?
inactive

For CCOP(=S)(OCC)Oc1cc(C)nc(N(CC)CC)n1 , what call appears in the results of this test?
inactive

For C=C(C)C(=O)[O][Sn]([CH2]CCC)([CH2]CCC)[CH2]CCC , what call appears in the results of this test?
active

For CCCCCON=O , what call appears in the results of this test?
inactive

For S=C=Nc1ccccc1 , what call appears in the results of this test?
inactive

For CCNc1nc(NC(C)C(C)C)nc(SC)n1 (centres undefined) , what call appears in the results of this test?
inactive

For C=Cc1cccc(CCl)c1 , what call appears in the results of this test?
inactive

For S=C=NCCc1ccccc1 , what call appears in the results of this test?
inactive

For CCCCC/C=C\C/C=C\C/C=C\C/C=C\CCCC(=O)NCC(=O)O , what call appears in the results of this test?
inactive

For [Cl][Hg][c]1ccccc1 , what call appears in the results of this test?
active

For COc1nc(C)nc(NC(=O)NS(=O)(=O)c2ccccc2Cl)n1 , what call appears in the results of this test?
inactive

For CC(Cc1ccc(OCC(=O)O)cc1)NCC(O)c1csc(C(F)(F)F)n1 (centres undefined) , what call appears in the results of this test?
inactive

For O=[N+]([O-])c1ccc(Cl)c(Cl)c1Cl , what call appears in the results of this test?
inactive

For O=c1[nH]c(Cl)c(Cl)cc1Cl , what call appears in the results of this test?
inactive

For Cc1ccc(C)c2ccccc12 , what call appears in the results of this test?
inactive

For Nc1nc(N)c(N)c(N)n1 , what call appears in the results of this test?
inactive

For CC(Cc1ccc2c(c1)OCO2)NO (centres undefined) , what call appears in the results of this test?
inactive

For CC(O)C(=O)[O][Hg][c]1ccccc1 (centres undefined) , what call appears in the results of this test?
active

For CCC[CH2][Sn]([CH2]CCC)([CH2]CCC)[O][Sn]([CH2]CCC)([CH2]CCC)[CH2]CCC , what call appears in the results of this test?
active

For CCCCn1cc[n+](C)c1.[Cl][Fe-]([Cl])([Cl])[Cl] , what call appears in the results of this test?
inactive

For O=[N+]([O-])c1cc(C(F)(F)F)c(Cl)c([N+](=O)[O-])c1Nc1ncc(C(F)(F)F)cc1Cl , what call appears in the results of this test?
active
